- Tested on: Human alphaherpesvirus 3
- ASSAY METHOD TEXT: Antiviral activity against thymidine kinase-deficient Varicella Zoster virus 07-1 strain infected in HELF cells assessed as inhibition of virus-induced plaque formation
- Format: functional, organism-based
- PROTOCOL CONDITIONS: Human alphaherpesvirus 3, 07-1, HELF
OUTCOME MEASURE: EC50 (µM)
Enter your answer as a number in µM; do not include the unit.

C#C[C@@]1(O)[C@@H](CO)O[C@@H](n2cc(Cl)c3c(N)ccnc32)[C@@H]1O    17.5
CC[C@@]1(O)[C@@H](CO)O[C@@H](n2cc(Cl)c3c(N)ncnc32)[C@@H]1O    3.74
C#C[C@@]1(O)[C@@H](CO)O[C@@H](n2cc(Cl)c3c(Cl)ccnc32)[C@@H]1O    3.06

Form field - read-out: EC50; system: Human alphaherpesvirus 3; submitted item: C#C[C@@]1(O)[C@@H](CO)O[C@@H](n2cnc3c(N)ncnc32)[C@@H]1O
1.64

Form field - read-out: EC50; system: Human alphaherpesvirus 3; submitted item: C#C[C@@]1(O)[C@@H](CO)O[C@@H](n2cc(I)c3c(Cl)ccnc32)[C@@H]1O
8.26

Form field - read-out: EC50; system: Human alphaherpesvirus 3; submitted item: C#C[C@@]1(O)[C@@H](CO)O[C@@H](n2cc(Br)c3c(Cl)ccnc32)[C@@H]1O
2.27

====

Measured TGI by item
- Test system: HOP-92
- ASSAY METHOD TEXT: Cytotoxicity against human HOP92 cells after 48 hrs by SRB assay
- Assay type: functional
- PROTOCOL CONDITIONS: HOP-92, 48 h, read-out: TGI

As a guide, the following entries are already answered.
C#C[C@@]1(O)[C@@H](CO)O[C@@H](n2cc(I)c3c(N)ncnc32)[C@@H]1O    0.991 to 4.98 µM
C#C[C@@]1(O)[C@@H](CO)O[C@@H](n2ccc3c(N)ncnc32)[C@@H]1O    5.56 µM
C#C[C@@]1(O)[C@@H](CO)O[C@@H](n2cc(Cl)c3c(N)ncnc32)[C@@H]1O    3.33 to 3.74 µM

Attention now turns to another entry.
Which TGI is reported for this compound? C#C[C@@]1(O)[C@@H](CO)O[C@@H](n2cc(Br)c3c(N)ncnc32)[C@@H]1O
0.686 to 3.13 µM

====

- System: HOP-92
- ASSAY METHOD TEXT: Growth inhibition of human HOP92 cells assessed as cell growth at 10^-8 M incubated for 48 hrs by sulforhodamine B assay relative to control
- Format: functional
- PROTOCOL CONDITIONS: HOP-92, 48 h, read-out: Activity
OUTCOME MEASURE: growth at 0.01 µM (%)
Enter your answer as a number in %; do not include the unit.

Which growth at 0.01 µM is reported for this molecule? C#C[C@@]1(O)[C@@H](CO)O[C@@H](n2cc(F)c3c(N)ncnc32)[C@@H]1O
121

Which growth at 0.01 µM is reported for this molecule? C#C[C@@]1(O)[C@@H](CO)O[C@@H](n2ccc3c(N)ncnc32)[C@@H]1O
92

====

- Tested on: T47D
- ASSAY METHOD TEXT: Growth inhibition of human T47D cells assessed as cell growth at 10^-7 M incubated for 48 hrs by sulforhodamine B assay relative to control
- Type: functional
- PROTOCOL CONDITIONS: read-out: Activity
OUTCOME MEASURE: growth at 0.1 µM (%)
Enter your answer as a number in %; do not include the unit.

C#C[C@@]1(O)[C@@H](CO)O[C@@H](n2ccc3c(N)ncnc32)[C@@H]1O    86

Attention now turns to another entry.
Which growth at 0.1 µM is reported for this compound? C#C[C@@]1(O)[C@@H](CO)O[C@@H](n2cc(F)c3c(N)ncnc32)[C@@H]1O
80

====

- Test system: OVCAR-8
- ASSAY METHOD TEXT: Cytotoxicity against human OVCAR8 cells after 48 hrs by SRB assay
- Type: functional
- PROTOCOL CONDITIONS: OVCAR-8, 48 h, read-out: TGI
OUTCOME MEASURE: TGI (nM)
Enter your answer as a number in nM; do not include the unit.

As a guide, the following entries are already answered.
C#C[C@@]1(O)[C@@H](CO)O[C@@H](n2cc(F)c3c(N)ncnc32)[C@@H]1O    3690
C#C[C@@]1(O)[C@@H](CO)O[C@@H](n2cc(Br)c3c(N)ncnc32)[C@@H]1O    1120

Attention now turns to another entry.
Form field - read-out: TGI; system: OVCAR-8; submitted item: C#C[C@@]1(O)[C@@H](CO)O[C@@H](n2ccc3c(N)ncnc32)[C@@H]1O
4110

====

Measured TGI by item
- Test system: IGROV-1
- ASSAY METHOD TEXT: Cytotoxicity against human IGROV1 cells after 48 hrs by SRB assay
- Format: functional
- PROTOCOL CONDITIONS: IGROV-1, 48 h, read-out: pTGI (converted)
Enter your answer as a number in nM; do not include the unit.

Which TGI is reported for this molecule? C#C[C@@]1(O)[C@@H](CO)O[C@@H](n2ccc3c(N)ncnc32)[C@@H]1O
5890

Which TGI is reported for this molecule? C#C[C@@]1(O)[C@@H](CO)O[C@@H](n2cc(Br)c3c(N)ncnc32)[C@@H]1O
490

Which TGI is reported for this molecule? C#C[C@@]1(O)[C@@H](CO)O[C@@H](n2cc(Cl)c3c(N)ncnc32)[C@@H]1O
479

Which TGI is reported for this molecule? C#C[C@@]1(O)[C@@H](CO)O[C@@H](n2cc(F)c3c(N)ncnc32)[C@@H]1O
1410

====

- Test system: M14
- ASSAY METHOD TEXT: Cytotoxicity against human M14 cells after 48 hrs by SRB assay
- Type: functional
- PROTOCOL CONDITIONS: M14, 48 h, read-out: TGI
OUTCOME MEASURE: TGI (nM)
Enter your answer as a number in nM; do not include the unit.

C#C[C@@]1(O)[C@@H](CO)O[C@@H](n2ccc3c(N)ncnc32)[C@@H]1O    3000

Attention now turns to another entry.
Which TGI is reported for this molecule? C#C[C@@]1(O)[C@@H](CO)O[C@@H](n2cc(F)c3c(N)ncnc32)[C@@H]1O
2390

====

- Test system: SF-295
- ASSAY METHOD TEXT: Growth inhibition of human SF295 cells assessed as cell growth at 10^-7 M incubated for 48 hrs by sulforhodamine B assay relative to control
- Assay type: functional
- PROTOCOL CONDITIONS: SF-295, 48 h, read-out: Activity
Measured growth at 0.1 µM by item
Enter your answer as a number in %; do not include the unit.

Form field - read-out: growth at 0.1 µM; system: SF-295; submitted item: C#C[C@@]1(O)[C@@H](CO)O[C@@H](n2cc(F)c3c(N)ncnc32)[C@@H]1O
94

Form field - read-out: growth at 0.1 µM; system: SF-295; submitted item: C#C[C@@]1(O)[C@@H](CO)O[C@@H](n2ccc3c(N)ncnc32)[C@@H]1O
98

====

- System: SW-620
- ASSAY METHOD TEXT: Cytotoxicity against human SW620 cells after 48 hrs by SRB assay
- Type: functional
- PROTOCOL CONDITIONS: SW-620, 48 h, read-out: pTGI (converted)
Measured TGI by item

Form field - read-out: TGI; system: SW-620; submitted item: C#C[C@@]1(O)[C@@H](CO)O[C@@H](n2ccc3c(N)ncnc32)[C@@H]1O
12.6 µM

Form field - read-out: TGI; system: SW-620; submitted item: C#C[C@@]1(O)[C@@H](CO)O[C@@H](n2cc(F)c3c(N)ncnc32)[C@@H]1O
2.88 µM

Form field - read-out: TGI; system: SW-620; submitted item: C#C[C@@]1(O)[C@@H](CO)O[C@@H](n2cc(Br)c3c(N)ncnc32)[C@@H]1O
> 100 µM

Form field - read-out: TGI; system: SW-620; submitted item: C#C[C@@]1(O)[C@@H](CO)O[C@@H](n2cc(I)c3c(N)ncnc32)[C@@H]1O
> 100 µM

====

Measured GI50 by item
- System: NCI-H522
- ASSAY METHOD TEXT: Cytotoxicity against human NCI-H522 cells after 48 hrs by SRB assay
- Assay type: functional
- PROTOCOL CONDITIONS: NCI-H522, 48 h, read-out: GI50

As a guide, the following entries are already answered.
C#C[C@@]1(O)[C@@H](CO)O[C@@H](n2cc(Br)c3c(N)ncnc32)[C@@H]1O    61.3 to 156 nM
C#C[C@@]1(O)[C@@H](CO)O[C@@H](n2cc(Cl)c3c(N)ncnc32)[C@@H]1O    81.6 to 134 nM
C#C[C@@]1(O)[C@@H](CO)O[C@@H](n2cc(F)c3c(N)ncnc32)[C@@H]1O    180 nM

Attention now turns to another entry.
Which GI50 is reported for this compound? C#C[C@@]1(O)[C@@H](CO)O[C@@H](n2cc(I)c3c(N)ncnc32)[C@@H]1O
64.8 to 152 nM
